Target: AIMP2-DX2 (Homo sapiens)
Sequence (Q13155 1-251 isoform Q13155-2): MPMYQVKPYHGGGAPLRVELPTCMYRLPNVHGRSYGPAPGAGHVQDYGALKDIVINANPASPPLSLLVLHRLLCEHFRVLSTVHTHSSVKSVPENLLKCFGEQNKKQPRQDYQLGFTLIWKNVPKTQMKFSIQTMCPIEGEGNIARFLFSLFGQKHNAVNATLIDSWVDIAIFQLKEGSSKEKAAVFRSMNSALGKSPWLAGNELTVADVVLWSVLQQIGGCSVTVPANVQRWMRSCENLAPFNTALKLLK
Test: DX2-nanoluciferase assay (DX2 expression change) in transfected A549 cells
Details: A549, 4 h, read-out: DX-Nanoluciferase activity (40 μM), 40 μM, 4 hours treatment, A549 cells transfected with nanoluciferase-DX2; inhibitory effect on AIMP2-DX2 expression
List of inhibition at 40 µM values.
Could you give me the number in %? Just the number is fine.

[ask] Recall and state the measured inhibition at 40 µM for CC(C)C[C@H](NS(=O)(=O)c1ccc(C(=O)OCc2ccccc2)cc1)C(=O)N1CCOCCOCCOCC1 [Compound 36] .
[reply] 36.8

[ask] Recall and state the measured inhibition at 40 µM for Cc1ccc(S(=O)(=O)N[C@H](C(=O)Nc2ccc(N3CCOCC3)cc2)[C@H](C)O)cc1 [Compound 42] .
[reply] -12.8

[ask] Recall and state the measured inhibition at 40 µM for CC(C)C[C@H](NS(=O)(=O)c1ccc2ccccc2c1)C(=O)Nc1ccc(N2CCOCC2)cc1 [Compound 26] .
[reply] 52.7

[ask] Recall and state the measured inhibition at 40 µM for CC(C)C[C@H](NS(=O)(=O)c1cccc([N+](=O)[O-])c1)C(=O)Nc1ccc(N2CCOCC2)cc1 [Compound 24] .
[reply] 59.4

###

List of Cell Viability (% inhibition) (A549) values.
Tested on: A549 cells
Test: Cell viability by MTT method in A549 cells
Type: cell-based
Design: concentration or dose not given beside the values
Details: 72 hours treatment
Could you give me the number in %? Just the number is fine.

Some compounds with known Cell Viability (% inhibition) (A549) results, for comparison:
compound	Cell Viability (% inhibition) (A549), %
Cc1ccc(S(=O)(=O)N[C@@H](CC(C)C)C(=O)Nc2ccc(N3CCOCC3)cc2)cc1	23.76
COc1ccc(-c2csc(NC(=O)[C@H](Cc3c[nH]c4ccccc34)NS(=O)(=O)c3ccc(C(C)C)cc3)n2)cc1	96.64
COc1cc(OC)cc(C(=O)NCCCC[C@H](NS(=O)(=O)c2ccc(C)cc2)C(=O)Nc2ccc(N3CCOCC3)cc2)c1	31.41
Cc1ccc(S(=O)(=O)N[C@@H](Cc2c[nH]c3ccccc23)C(=O)Nc2nc(C)cs2)cc1 [Compound 83]	97.43
O=C(Nc1ccc(N2CCOCC2)cc1)[C@H](Cc1c[nH]c2ccccc12)NS(=O)(=O)c1ccc(F)cc1	69.20
Cc1ccc(S(=O)(=O)N[C@@H](CC(C)C)C(=O)Nc2ccc(N3CCCC3)cc2)cc1	20.11
O=C(Nc1nc(-c2ccccc2Cl)cs1)[C@H](Cc1c[nH]c2ccccc12)NS(=O)(=O)c1ccc(Br)cc1	59.19
CC(C)C[C@H](NC(=O)c1ccc(C(C)(C)C)cc1)C(=O)N1CCOCC1	−4.86
COc1ccc(-c2csc(NC(=O)[C@H](Cc3c[nH]c4ccc(O)cc34)NS(=O)(=O)c3ccc(Br)cc3)n2)cc1	89.41
COc1ccc(-c2csc(NC(=O)[C@H](Cc3c[nH]c4ccccc34)NS(=O)(=O)c3ccc(F)cc3)n2)cc1	83.29

[ask] Name the value of Cell Viability (% inhibition) (A549) reported for O=C(NCCc1c[nH]c2ccccc12)[C@H](Cc1c[nH]c2ccccc12)NS(=O)(=O)c1ccc(Br)cc1 when tested on A549 cells.
[reply] 89.27

[ask] Name the value of Cell Viability (% inhibition) (A549) reported for C[C@]12C[C@@H]3C[C@](C)(C1)C[C@@](NC(=O)[C@H](Cc1c[nH]c4ccccc14)NS(=O)(=O)c1ccc(Br)cc1)(C3)C2 when tested on A549 cells.
[reply] 86.93

[ask] Name the value of Cell Viability (% inhibition) (A549) reported for Cc1ccc(S(=O)(=O)N[C@@H](CC(C)C)C(=O)Nc2ccc(N3CCCCC3)cc2)cc1 when tested on A549 cells.
[reply] 23.48

Data credit: patent US20220204497A1
